System Name: Aspartate--tRNA(Asp/Asn) ligase (Mycobacterium tuberculosis (strain ATCC 25618 / H37Rv)); note: in the data most compounds retested in dose-response had high values
Protocol Summary: Assay for Asp RNA synthetase-1 from Mycobacterium tuberculosis
Assay type: functional
Design: scale not given: direction of the effect not stated beside the values
Measurement Conditions: 30 µM
Outcome Measure: Percent Effect (%)
Answer format: numeric, % implied, no suffix.

Inquiry: Report Percent Effect for "CC(C)N1CCO[C@H]2CN(C(=O)c3ccc(N(C)C)cc3)C[C@H]21"
Reply text: 2.49

Inquiry: Could you please provide reported Percent Effect for CCc1n[nH]c(C2CN(C(=O)c3ncoc3C(C)C)CCO2)n1 (configuration not stated) ? Thanks!
Reply text: 2.8

Inquiry: Output measured Percent Effect for this item: "NC(=O)Cn1cc(NC(=O)N2CCCC2)cn1"
Reply text: -2.12

Inquiry: Write down Percent Effect measured for item CN(Cc1cccc(F)c1)C(=O)CN1CCCCC1Cn1cncn1 (configuration not stated)
Reply text: 5.47

Inquiry: Provide Percent Effect value for the following compound: CSCC(=O)N1CCC2(CC1)c1ccccc1CC2O (configuration not stated)
Reply text: 0.357

Inquiry: Answer with the recorded Percent Effect for the compound listed here: "CCn1nc(CC(C)C)cc1C(=O)N1C[C@H](O)[C@@H](N2CCCCC2)C1"
Reply text: -2.61

Inquiry: Give a short answer stating reported Percent Effect for Cc1nc(CN2CCCC(N(C)CCc3cccs3)C2)no1 (configuration not stated) .
Reply text: -3.43

Inquiry: Entry "COc1cc(CN2CC[C@@]3(CCCO3)[C@@H](O)C2)ccc1F" needs its Percent Effect filled in; supply it.
Reply text: 4.99

Inquiry: Report Percent Effect for Cc1nc(C)n(CC2CCCN(CCOc3cccc(C#N)c3)C2)n1 (configuration not stated)
Reply text: 2

Inquiry: Output Percent Effect of COc1ccc(C(O)CNC(=O)Nc2cc(C)nn2C)cc1 (configuration not stated)
Reply text: -1.41

Inquiry: Specify measured Percent Effect for "Cc1ccc(C)c(NC(=O)N(C)Cc2cnn(C)c2)c1" .
Reply text: -1.13

Inquiry: Return value of Percent Effect for input O=C(CN1CCCC(O)C1)NC(=O)NCc1cccs1 (configuration not stated) , no commentary.
Reply text: -0.0898

---

System Name: Protein translocase subunit SecA (Escherichia coli (strain K12))
Protocol Summary: Assay to Identify E. coli SecA ATPase Inhibitors
Assay type: functional
Design: scale not given: direction of the effect not stated beside the values
Measurement Conditions: 30 µM
Potency and affinity values are given separately.
For each of the compounds below, state its Percent Effect.
Write the number in % without appending the unit.

Inquiry: Quick one: give measured Percent Effect for COc1ccc(-c2n[nH]cc2C2SCC(=O)Nc3[nH]ncc32)cc1 (centres undefined)
Reply text: -3.63

Inquiry: Fill in reported Percent Effect for this entry: O=C1N(c2cncnc2)CCC12CCCN(Cc1ccccn1)C2 (centres undefined)
Reply text: -4

Inquiry: Give Percent Effect for "O=C(c1ccsc1)N1CCN2C[C@H](OCc3cccnc3)C[C@H]2C1"
Reply text: -4.24

Inquiry: Recall and state the measured Percent Effect for "COC[C@@H]1CCC[C@]12CN(Cc1cccc(C)n1)CCO2" .
Reply text: 2.73

Inquiry: Give me measured Percent Effect, please, for this compound: CC(C)N1CCOCC2(CN(Cc3ccccn3)CCO2)C1 (centres undefined)
Reply text: -1.27

Inquiry: Provide Percent Effect value for the following compound: "Cn1cc(CN2C[C@@H]3[C@@H](C2)OCC(=O)N3Cc2ccncc2)cn1"
Reply text: -5.79

Inquiry: Answer with reported Percent Effect of "c1cnc(NC[C@@H]2CCC[C@@H]3CN(Cc4cccnc4)C[C@@H]32)nc1"
Reply text: 0.229

Inquiry: Return Percent Effect (reported value) for this compound: CC(C)c1nc(N2CCN3CCCC3C2)c2cnn(C)c2n1 (centres undefined)
Reply text: -0.588

Inquiry: # return recorded Percent Effect for entry "CC(C)CN1C[C@H]2C[C@H](C(=O)Nc3cccnc3)[C@@H](C1)O2"
Reply text: -0.904

---

Kindly supply the reported Percent Effect values for the records listed here.
System Name: Shiga toxin 2 (Escherichia coli O157:H7) (UniProt P09385+P09386)
Protocol Summary: E. coli 0.157:H7 Shiga Toxin SOP - stx2 screening assay
Type: functional
Parameters: scale not given: direction of the effect not stated beside the values
Measurement Conditions: 30 µM
The answer is to be given in %; state only the numeric part.

Inquiry: Provide measured Percent Effect value, entry: CCCc1cc(CNC(=O)C2CCOc3ccccc3C2)on1 (stereo not drawn)
Reply text: 17.5

Inquiry: For the compound "CCOC(=O)[C@]12CCCN(Cc3nccs3)C[C@H]1CN(CCN(C)C)C2" , report Percent Effect.
Reply text: -7.56

Inquiry: Identify Percent Effect associated with the compound "CCN(Cc1cccc(Cl)c1)Cn1nc(C)c2c(C)onc2c1=O"
Reply text: 21.7

Inquiry: Give me measured Percent Effect, please, for this compound: "CCOCCn1c(=O)[nH]c2cc(C(=O)N(C)Cc3nc(C)cs3)ccc21"
Reply text: -4.35

Inquiry: Indicate its recorded Percent Effect; the compound in question is "CCN(C)S(=O)(=O)N(CC)Cc1ccc2c(c1)OCO2"
Reply text: 12.6

Inquiry: Give reported Percent Effect value for "O=C(NC1CC1)[C@H]1CC[C@@H]2[C@@H](CCN2c2ncc(F)cn2)O1"
Reply text: -23

Inquiry: Give recorded Percent Effect. Cc1ccc(CC2CCCN2CC(=O)NCc2cccnc2)cc1 (stereo not drawn)
Reply text: 16.7

Inquiry: State its Percent Effect for this compound: "Cc1nnc2n1CCN(CCOc1ccccc1)C2"
Reply text: -21.5

Inquiry: Could you please provide reported Percent Effect for "COc1cccc(C(=O)NCCCN2CCc3ccccc3C2)c1OC" ? Thanks!
Reply text: -9.33

Inquiry: Supply recorded Percent Effect for "Cc1cc(C)n(C2CN(CC(=O)NC3CCOCC3)C2)n1" here.
Reply text: -2.98

Inquiry: For the compound COc1ccc(OC)c(C(O)CN2CC(n3cccn3)C2)c1 (stereo not drawn) , give its measured Percent Effect value.
Reply text: 21.2

Inquiry: Please give measured Percent Effect of the following entry: COCC(=O)N1CCCC1c1ccnc(Nc2cnccn2)n1 (stereo not drawn)
Reply text: 1.15

Inquiry: Assign Percent Effect to the following record: "Fc1cccc(CN2CCO[C@H]3[C@@H](OCc4ccccn4)CC[C@@H]32)c1"
Reply text: -1.04

Inquiry: Specify reported Percent Effect for the compound shown: "Cn1cc(CN2CCC3(CCCN3S(C)(=O)=O)CC2)cn1"
Reply text: 4.5

Inquiry: Give reported Percent Effect value for "O=C(c1cccn1Cc1cccs1)N1CCN(C2CC2)CC1"
Reply text: -1.86

Inquiry: For the compound "Cc1c(I)cccc1C(=O)NCC1(CO)CC1" , give its reported Percent Effect.
Reply text: 0.906

Inquiry: // fetch Percent Effect given entry "CCOc1ccc(N(CC(=O)c2ccccc2)C2=NCCCCC2)cc1"
Reply text: -5.46

Inquiry: Check the records and state Percent Effect for "NCc1cn(-c2ccccc2C(=O)NCc2ccccc2)cn1"
Reply text: -5.86

Inquiry: Given "Cc1csc([C@@H]2C[C@@H]3CCN(C(=O)c4cc(C)on4)C[C@H]3O2)n1" , respond with its Percent Effect.
Reply text: -17.6

Inquiry: Read off the recorded Percent Effect for "O=C(NCc1nn(-c2ccccc2)c2c1CCC2)N1CCSCC1"
Reply text: 34

Inquiry: Determine its reported Percent Effect: "O=C(NCC1CC1)Nc1cccc(N2CCN(CC3CC3)CC2)c1"
Reply text: -38.1

Inquiry: Provide Percent Effect value for the following compound: "CCOc1ncccc1NC(=O)NC1CCN(S(C)(=O)=O)CC1"
Reply text: -16.8

Inquiry: Give the reported value of Percent Effect for this record: "Fc1cnc(N2CCO[C@H]3CN(CC4CCCC4)C[C@H]32)nc1"
Reply text: -12.1

Inquiry: Read off the recorded Percent Effect for CC(CNC(=O)N1CCN(c2cnccn2)CC1)Cc1cccs1 (stereo not drawn)
Reply text: -14.3

Inquiry: Provide Percent Effect value for the following compound: COc1c(CNCC(c2cccc(F)c2)N(C)C)c(C(C)C)nn1C (stereo not drawn)
Reply text: -15.5

Inquiry: Name the recorded Percent Effect of the item "Cc1ccc(-c2ncc(C(=O)NCCS(N)(=O)=O)s2)c(C)c1" in your answer.
Reply text: 18.5

Inquiry: Note Percent Effect for the compound shown: COc1ccc(OCc2sc(C3(O)CCCNCC3)nc2C)cc1 (stereo not drawn)
Reply text: 7.21

Inquiry: Return Percent Effect (reported value) for this compound: "NC(=O)c1nc(COc2ccc3c(c2)OCO3)no1"
Reply text: -76.3

Inquiry: Identify measured Percent Effect corresponding to O=C(c1ccco1)N1CCCC(c2cc(C(F)F)n3ncnc3n2)C1 (stereo not drawn)
Reply text: -7.72

Inquiry: Could you please provide reported Percent Effect for "Cc1nc(C)c2c(n1)CCN(C(=O)CC1CC1)CC2" ? Thanks!
Reply text: -5.99

Inquiry: For the compound Cc1nc(C)n(CC2CN(Cc3cccc4c3OCCO4)CCO2)n1 (stereo not drawn) , give its measured Percent Effect value.
Reply text: 23.8

Inquiry: Indicate its recorded Percent Effect; the compound in question is "Cc1nn(C)c(Cl)c1CNCc1ccc(OCC(N)=O)cc1"
Reply text: -17.5

Inquiry: Identify measured Percent Effect corresponding to Cc1nc(C2CCCN(C(=O)Cn3ccccc3=O)C2)no1 (stereo not drawn)
Reply text: 25.3

Inquiry: # return recorded Percent Effect for entry "CO[C@H]1CCN(c2ccc(C)nn2)[C@H]1Cc1cnn(C)c1"
Reply text: 3.96

Inquiry: Give recorded Percent Effect. COc1ccc(C2CC(=O)Nc3c2cnn3C)cc1 (stereo not drawn)
Reply text: -21.4

Inquiry: Could you please provide reported Percent Effect for "CCCn1ncc2c(C(=O)Nc3cnn(CC)c3C)cc(C3CC3)nc21" ? Thanks!
Reply text: -0.924

Inquiry: Input "O=C(COc1coc(CN2CCCC2)cc1=O)NCc1ccccc1Cl" , output reported Percent Effect.
Reply text: -62.7

Inquiry: Report measured Percent Effect; entry is "Cn1cc(C(=O)NCc2cn3c(n2)CN(Cc2ccccn2)CC3)cn1"
Reply text: -42

Inquiry: Using the record for CC(=O)N1CCNCC1c1cccc(C(=O)N(C)C)c1 (stereo not drawn) , state its measured Percent Effect.
Reply text: 8.72

Inquiry: Look up and state reported Percent Effect for "O=C(c1cccs1)N1CCC(n2nc(-c3ccco3)ccc2=O)CC1"
Reply text: 6.63

Inquiry: Look up and state reported Percent Effect for Cc1cn2nc(N3CCCC3CC(C)(C)C)sc2n1 (stereo not drawn)
Reply text: 22.9

Inquiry: Please report the measured Percent Effect for COc1ccc(CN2CCCC(Nc3cccc(F)c3)C2)cc1O (stereo not drawn)
Reply text: 5.84

Inquiry: Return reported Percent Effect. Input compound: "O=C(C1CCOCC1)N1C[C@@H]2[C@@H](C1)OCC(=O)N2Cc1ccncc1"
Reply text: -3.94

Inquiry: Note down Percent Effect recorded for "O=C(NCCOc1ccc2c(c1)CCC2)N1CCS(=O)(=O)CC1"
Reply text: -52.5

Inquiry: Quote Percent Effect reported for CCOCC1CN(C(=O)c2ccncc2)Cc2nn(C)cc21 (stereo not drawn) please.
Reply text: -22.5

Inquiry: Supply reported Percent Effect belonging to this compound: "CCOC(=O)N1CCN(C(=O)c2ccc3ccn(C)c3c2)CC1"
Reply text: 1.39

Inquiry: Could you please provide reported Percent Effect for "COc1cc(C)nc(N2CCN(Cc3nccn3C)CC2)n1" ? Thanks!
Reply text: -9.36

Inquiry: Given "CN(C)C(=O)N1CCN(Cc2nnc(C(C)(C)C)o2)CC1" , respond with its Percent Effect.
Reply text: 3.28
